- target.entity: Human DAAO Enzyme (Homo sapiens (Human), UniProt P14920)
- Sequence (P14920 whole entry): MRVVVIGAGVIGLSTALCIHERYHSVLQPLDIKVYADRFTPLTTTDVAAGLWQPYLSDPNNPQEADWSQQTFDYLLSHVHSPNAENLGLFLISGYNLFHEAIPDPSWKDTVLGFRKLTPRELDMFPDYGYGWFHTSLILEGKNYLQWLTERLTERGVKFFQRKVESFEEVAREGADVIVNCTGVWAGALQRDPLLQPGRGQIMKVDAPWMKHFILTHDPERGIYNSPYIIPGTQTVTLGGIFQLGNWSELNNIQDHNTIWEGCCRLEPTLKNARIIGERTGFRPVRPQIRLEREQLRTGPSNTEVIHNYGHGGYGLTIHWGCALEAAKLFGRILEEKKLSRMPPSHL
- assay.details: In vitro DAAO enzyme assay (Amplex Red detection of H2O2 from D-Serine)
- experimental.parameters: inhibition of DAAO activity in the presence of 10 mM D-Serine; 60 minutes at 25° C.
readout.kind: IC50 (nM)

Below are worked cases with known answers.
>>> df
                                   molecule  value
0  O=c1[nH]c(SCc2cccc(C(F)(F)F)c2)ncc1O [Example 10]    150
1  O=c1[nH]c(SCc2cccc(OC(F)F)c2)ncc1O [Example 18]    190
2  O=c1[nH]c(SCc2cccc3c2OCCO3)ncc1O [Example 16]    540

a = O=c1[nH]c(SCc2ccccc2)ncc1O [Example 2]
b = O=c1[nH]c(SCc2cc(F)cc(Cl)c2)ncc1O [Example 11]
Query: # return whichever of a and b has the smaller IC50 Label of pick, please.
Response: b
(b: 150 nM, a: 230 nM)

I = O=c1[nH]c(SCc2ccc3ccccc3c2)ncc1O [Example 5]
II = O=c1[nH]c(SCc2ccc3nccn3c2)ncc1O [Example 26]
III = O=c1[nH]c(SCc2cccnc2)ncc1O [Example 20]
Query: Hey, quick one: sort these by IC50, largest value first please. Please respond with the labels ordered as the question requires.
Response: II, III, I

A = COc1cccc(CSc2ncc(O)c(=O)[nH]2)c1 [Example 9]
B = O=c1[nH]c(CCc2ccccc2)ncc1O [Example 33]
Query: Endpoint returns the identifier whose IC50 is numerically larger, either A or B . Label of pick, please.
Response: B

a = CC(Sc1ncc(O)c(=O)[nH]1)c1ccccc1 (stereo not drawn) [Example 14]
b = Cc1nc(-c2cccc(CSc3ncc(O)c(=O)[nH]3)c2)no1 [Example 12]
Query: # return whichever of a and b has the smaller IC50 Label of pick, please.
Response: b
(b: 500 nM, a: 1200 nM)
